# protocol text: Plasma treprostinil concentration in scleroderma patients post-iontophoresis
# Assay type: in vivo
# particulars: human, other: cathodal iontophoresis, 250 μM, 30 minutes post-iontophoresis
quantity measured: concentration at 30 min

# smiles entry, quantity measured, measured
data = [
    ("CCCCC[C@H](O)CC[C@@H]1[C@H]2Cc3cccc(OCC(=O)O)c3C[C@H]2C[C@H]1O", "concentration at 30 min", "< 1.8 pg/mL"),
]
